Origin of values: patent US20200361895A1

Target: NLRP3 (Homo sapiens, UniProt Q96P20)
Sequence (Q96P20 whole entry): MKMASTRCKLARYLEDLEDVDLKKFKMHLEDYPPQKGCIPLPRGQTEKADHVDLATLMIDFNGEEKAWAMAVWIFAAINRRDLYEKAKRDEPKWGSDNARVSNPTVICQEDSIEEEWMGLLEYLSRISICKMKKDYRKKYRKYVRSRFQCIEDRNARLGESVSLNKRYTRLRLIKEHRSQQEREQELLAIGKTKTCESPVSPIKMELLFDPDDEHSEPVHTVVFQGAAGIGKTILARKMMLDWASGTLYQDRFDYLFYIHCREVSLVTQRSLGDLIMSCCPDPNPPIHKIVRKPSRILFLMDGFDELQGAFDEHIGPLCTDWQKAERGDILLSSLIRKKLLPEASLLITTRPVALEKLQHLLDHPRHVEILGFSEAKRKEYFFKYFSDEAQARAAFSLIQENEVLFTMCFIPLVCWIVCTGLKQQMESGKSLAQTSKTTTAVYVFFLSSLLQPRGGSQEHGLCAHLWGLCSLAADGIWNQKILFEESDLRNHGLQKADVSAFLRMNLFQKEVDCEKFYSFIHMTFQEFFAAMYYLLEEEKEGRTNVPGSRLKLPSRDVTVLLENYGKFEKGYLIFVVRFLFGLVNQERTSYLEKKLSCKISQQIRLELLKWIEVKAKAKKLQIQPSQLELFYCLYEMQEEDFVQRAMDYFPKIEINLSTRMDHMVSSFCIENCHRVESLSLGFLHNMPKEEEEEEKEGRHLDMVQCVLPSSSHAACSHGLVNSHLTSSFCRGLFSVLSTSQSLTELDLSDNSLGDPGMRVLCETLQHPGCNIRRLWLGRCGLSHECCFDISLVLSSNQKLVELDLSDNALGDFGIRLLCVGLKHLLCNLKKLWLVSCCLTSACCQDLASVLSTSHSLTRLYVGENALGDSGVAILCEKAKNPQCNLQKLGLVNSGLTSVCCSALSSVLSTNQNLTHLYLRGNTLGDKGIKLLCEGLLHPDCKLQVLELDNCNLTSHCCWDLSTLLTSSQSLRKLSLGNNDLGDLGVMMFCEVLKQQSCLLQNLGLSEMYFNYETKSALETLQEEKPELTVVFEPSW
Assay: THP-1 cells pyroptosis assay (LPS + nigericin, resazurin readout; THP IC50)
Assay type: cell-based
Design: Seed THP-1 cells (25,000 cells/well) containing 1.0 μg/ml LPS in 40 μl of RPMI medium; host or cells: THP-1 cells
pIC50: −log10 of the molar value. Counter-ions that a name gives are not always drawn.
Here, each record is paired with measured pIC50 data.

Take a look at these entries with their results.
COc1cc(-c2ccc3c(c2NC(=O)NS(=O)(=O)c2ccn(C(C)C)n2)CCCC3)ccn1 [Example 213] : ≥ 6.30
CC(C)n1ccc(S(=O)(=O)NC(=O)Nc2c(-c3ccnc(OC4CCN(C)C4)c3)ccc3c2CCC3)n1 (stereo not drawn) [Example 301, sodium salt] : ≥ 6.00
COc1cc(-c2ccc3c(c2NC(=O)NS(=O)(=O)CC(C)C)CCC3)ccn1 [Example 133] : ≥ 6.30
O=C(Nc1c(-c2ccnc(OC3CC3)c2)ccc2c1CCC2)NS(=O)(=O)c1ccn(C2CC2)n1 [Example 261, sodium salt] : ≥ 6.30
O=C(Nc1c(-c2ccnc(OC(F)F)c2)ccc2c1CCC2)NS(=O)(=O)c1ccn(C2CC2)n1 [Example 262, sodium salt] : ≥ 6.30
CC(C)c1cc(F)cc(-c2ccnc(C#N)c2)c1NC(=O)NS(=O)(=O)c1cc(N(C)C)cnn1 [Example 118] : ≥ 6.30
O=C(Nc1c(-c2ccncc2)ccc2c1CCC2)NS(=O)(=O)c1ccn(C2CC2)n1 [Example 303] : ≥ 6.30
COc1cncc(-c2cc(F)cc(C(C)C)c2NC(=O)NS(=O)(=O)c2ccn(C(C)C)n2)c1 [Example 17, ammonium salt] : ≥ 5.30
COc1cc(-c2ccc3c(c2NC(=O)NS(=O)(=O)c2coc(C4CC4)n2)CCC3)ccn1 [Example 293, sodium salt] : ≥ 6.30
CCN(CCCS(=O)(=O)NC(=O)Nc1c(-c2ccnc(OC)c2)ccc2c1CCC2)Cc1ccccc1 [Example 152] : ≥ 6.30

## Input Assign pIC50 to the following record: COc1cc(-c2ccc3c(c2NC(=O)NS(=O)(=O)c2cn(C(C)C)c(=O)cn2)CCC3)ccn1 [Example 73, ammonium salt]
## Output ≥ 6.30

## Input Quick one: give measured pIC50 for COc1cc(-c2ccc3c(c2NC(=O)NS(=O)(=O)c2ccc(C(=O)N(C)C)cc2)CCC3)ccn1 [Example 308, sodium salt]
## Output ≥ 6.30

## Input Give the value of pIC50 reported for the following: CC(C)(C#N)n1ccc(S(=O)(=O)NC(=O)Nc2c(-c3ccnc(OC(F)F)c3)ccc3c2CCO3)n1 [Example 195]
## Output ≥ 6.30

## Input Look up and report measured pIC50 for this entry: CC(C)c1cc(F)cc(-c2ccnc(C#N)c2)c1NC(=O)NS(=O)(=O)c1cncc(N(C)C)n1 [Example 102]
## Output ≥ 6.30

## Input Given CCN1CC(S(=O)(=O)NC(=O)Nc2c(-c3ccnc(C#N)c3)cc(F)cc2C(C)C)C1 [Example 82] , respond with its pIC50.
## Output ≥ 5.00

* * *

Molecular target: NLRP3 (Homo sapiens, UniProt Q96P20)
Experiment: Human whole blood IL1β release assay (LPS + nigericin, AlphaLisa IL-1β; HWB IC50)
Type: cell-based
Design: Human whole blood in Li-heparin tubes was obtained from healthy donors from a volunteer donor panel; from tissue; host or cells: human whole blood from healthy donors
Conditions: IL-1β release
Where a name gives a salt, the structure may show the parent alone.
readout_type: IC50

Check out these entries, answers already filled in.
Cc1cc(-c2ccc3c(c2NC(=O)NS(=O)(=O)c2ccn(C4CC4)n2)CCC3)ccn1 [Example 270, sodium salt] : ≤ 500 nM
COc1cc(-c2cc(F)c3c(c2NC(=O)NS(=O)(=O)c2ccn(C4CCC4)n2)CCC3)ccn1 [Example 172, sodium salt] : ≤ 1000 nM
COc1cc(-c2ccc3c(c2NC(=O)NS(=O)(=O)c2ccn(C4CCOC4)n2)CCC3)ccn1 (stereo not shown) : ≤ 500 nM

## Input Give measured IC50 for `CC(C)n1cnc(S(=O)(=O)NC(=O)Nc2c(-c3ccnc(C#N)c3)ccc3c2CCC3)c1` (NLRP3 (Homo sapiens, UniProt Q96P20)).
## Output ≤ 500 nM

## Input Tell me its IC50 on NLRP3 (Homo sapiens, UniProt Q96P20): CCN1CCC(S(=O)(=O)NC(=O)Nc2c(-c3ccncc3)ccc3c2CCC3)CC1 [Example 101, potassium salt]
## Output ≤ 1000 nM

## Input Provide the reported IC50 (system: NLRP3 (Homo sapiens, UniProt Q96P20)) for `COc1cc(-c2ccc3c(c2NC(=O)NS(=O)(=O)C2CN(C(C)C)C2)CCC3)ccn1`
## Output ≤ 500 nM

## Input // fetch IC50; item: `COc1cc(-c2cc(F)cc(C(C)C)c2NC(=O)NS(=O)(=O)c2cc(C3(OC)COC3)n(C)n2)ccn1` ; system: NLRP3 (Homo sapiens, UniProt Q96P20)
## Output ≤ 500 nM

* * *

Below is a list of entries, each paired with its recorded IC50 value.
Molecular target: UniProt Q96P20
Assay: Human whole blood IL1β release assay (LPS + nigericin, AlphaLisa IL-1β; HWB IC50)
Format: cell-based
Parameters: Human whole blood in Li-heparin tubes was obtained from healthy donors from a volunteer donor panel; from tissue; host or cells: human whole blood from healthy donors
Settings: IL-1β release
Structures can show the parent of a compound that is named as a salt.

COc1cc(-c2ccc3c(c2NC(=O)NS(=O)(=O)c2ccnc(CN(C)C)c2)CCC3)ccn1 [Example 177, sodium salt] : ≤ 1000 nM
COc1cc(-c2ccc3c(c2NC(=O)NS(=O)(=O)c2ccn(C4CCN(C)C4)n2)CCC3)ccn1 (centres unmarked) [Example 199, sodium salt] : ≤ 500 nM
COc1cc(-c2ccc3c(c2NC(=O)NS(=O)(=O)c2ccc(CN(C)C)c(C4CC4)c2)CCC3)ccn1 : ≤ 500 nM
CC(C)c1cc(F)cc(-c2cccnc2)c1NC(=O)NS(=O)(=O)c1ccn(C(C)C)n1 : ≤ 500 nM
COc1cc(-c2ccc3c(c2NC(=O)NS(=O)(=O)c2ccn(CC(C)(C)OC)n2)CCC3)ccn1 : ≤ 500 nM

## Input System UniProt Q96P20. Read-out IC50. Item `COc1cc(-c2ccc3c(c2NC(=O)NS(=O)(=O)c2ccc(CN(C)C)nc2)CCC3)ccn1` . Report value.
## Output ≤ 500 nM

## Input Give IC50 for COc1cc(-c2ccc3c(c2NC(=O)NS(=O)(=O)c2ccn(CC4CC4)n2)CCC3)ccn1 [Example 263, sodium salt] tested on UniProt Q96P20.
## Output ≤ 500 nM

## Input Look up and report IC50, with UniProt Q96P20 as system, for CC(C)c1cc(F)cc(-c2cnn(C)c2)c1NC(=O)NS(=O)(=O)c1cc(C(=O)N(C)C)n(C)n1 [Example 34, sodium salt]
## Output ≤ 500 nM

## Input Param request: IC50 | system UniProt Q96P20 | item COc1cc(-c2ccc3c(c2NC(=O)NS(=O)(=O)c2ccn(C4CC4)n2)CCC3)ccn1 [Example 221, sodium salt]
## Output ≤ 500 nM

* * *

Listing of entries alongside the reported IC50.
Molecular target: NLRP3 (Homo sapiens, UniProt Q96P20)
Assay: Human whole blood IL1β release assay (LPS + nigericin, AlphaLisa IL-1β; HWB IC50)
Format: cell-based
Parameters: Human whole blood in Li-heparin tubes was obtained from healthy donors from a volunteer donor panel; from tissue; host or cells: human whole blood from healthy donors
Settings: IL-1β release
Counter-ions that a name gives are not always drawn.

CC(C)N1CC(S(=O)(=O)NC(=O)Nc2c(-c3ccncc3)cc(F)c3c2CCC3)C1 : ≤ 1 µM
COc1cc(-c2ccc3c(c2NC(=O)NS(=O)(=O)c2cnc(N(C)C)cn2)CCC3)ccn1 : ≤ 5 µM
COCCN(CCOC)C(=O)c1cc(S(=O)(=O)NC(=O)Nc2c(-c3ccnc(OC)c3)ccc3c2CCC3)nn1C [Example 167, sodium salt] : ≤ 0.5 µM
COc1cc(-c2ccc3c(c2NC(=O)NS(=O)(=O)c2ccn(C(C)(C)CN4CC(F)C4)n2)CCC3)ccn1 [Example 242, sodium salt] : ≤ 0.5 µM
O=C(Nc1c(-c2ccncc2)cc(F)c2c1CCC2)NS(=O)(=O)CCc1ccccc1 : ≤ 10 µM
[2H]C([2H])([2H])Oc1cc(-c2ccc3c(c2NC(=O)NS(=O)(=O)c2ccn(C4CC4)n2)CCO3)ccn1 [Example 278, sodium salt] : ≤ 0.5 µM
COc1cc(-c2ccc3c(c2NC(=O)NS(=O)(=O)c2ccc(CN(C)C)cc2)CCO3)ccn1 : ≤ 0.5 µM
COc1cc(-c2ccc3c(c2NC(=O)NS(=O)(=O)c2ccn(CC4CC4)n2)CCO3)ccn1 [Example 267, sodium salt] : ≤ 0.5 µM
COc1cc(-c2ccc3c(c2NC(=O)NS(=O)(=O)c2ccn(C(C)(C)C#N)n2)CCC3)ccn1 [Example 201, sodium salt] : ≤ 0.5 µM
CC(C)n1ccc(S(=O)(=O)NC(=O)Nc2c(-c3ccnc(OCCO)c3)ccc3c2CCC3)n1 : ≤ 0.5 µM

## Input Give recorded IC50. `CC#Cc1cc(-c2cc(F)cc(C(C)C)c2NC(=O)NS(=O)(=O)c2ccn(C(C)C)n2)ccn1`
## Output ≤ 0.5 µM

## Input Give me measured IC50, please, for this compound: CC(C)c1cc(F)cc(-c2ccncc2)c1NC(=O)NS(=O)(=O)c1ccn(C(C)C)n1 [Example 10, ammonium salt]
## Output ≤ 0.5 µM

## Input Provide IC50 value for the following compound: `COc1cc(-c2ccc3c(c2NC(=O)NS(=O)(=O)c2ccn(C(C)(C)CN4CCC4)n2)CCC3)ccn1`
## Output ≤ 0.5 µM

## Input Name the recorded IC50 of the item N#Cc1cc(-c2ccc3c(c2NC(=O)NS(=O)(=O)c2ccn(C4CC4)n2)CCC3)ccn1 [Example 222, sodium salt] in your answer.
## Output ≤ 0.5 µM

## Input Answer with reported IC50 of CC(C)n1ccc(S(=O)(=O)NC(=O)Nc2c(-c3ccnc(Oc4ccccc4)c3)ccc3c2CCC3)n1 [Example 286, sodium salt]
## Output ≤ 10 µM
